The measured values listed here are drawn from patent US12582631B2.

system: IL-6 production in primary human renal mesangial cells (HRMCs); experiment: ET-1 induced IL-6 production in HRMCs (ELISA); format: cell-based; settings: Homo sapiens, Mesangial cell, 72 h, 10 ng/mL ET-1, 72 hours; read-out: IC50, ET-1 stimulated IL-6 production
quantity kind: IC50

Query: Using the record for CCCCN(CCCC)C(=O)CN1C[C@H](c2ccc3c(c2)OCO3)[C@@H](C(=O)O)[C@@H]1c1ccc(OC)cc1 [atrasentan] , report its IC50.
Response: ~1 nM
